src = ChEMBL document CHEMBL1201862

Provide the recorded GI50 for the entries that follow.
Test system: SK-MEL-28
PROTOCOL DETAILS: NCI tumour cell line growth inhibition, 48 h
Activity calls are given as the source filed them. Cut-off read from the data, not from the text of the source: active = GI50 up to about 1.1 µM and inactive = higher.

Consider the worked cases shown below.
[
  {
    "COMPOUND": "CCOC(=O)NC(=O)c1cn(C2CCCCC2)c(=O)n(C)c1=O",
    "TEST SYSTEM": "SK-MEL-28",
    "GI50": "> 100 µM (inactive)"
  },
  {
    "COMPOUND": "Cc1ccccc1-n1c(N)c(-c2nc3ccccc3[nH]2)sc1=S",
    "TEST SYSTEM": "SK-MEL-28",
    "GI50": "20 µM (inactive)"
  },
  {
    "COMPOUND": "COc1ccc(CC2=NCCc3cc(OC)c(OC)cc32)cc1Br",
    "TEST SYSTEM": "SK-MEL-28",
    "GI50": "19.8 µM (inactive)"
  },
  {
    "COMPOUND": "CCCCCCC(=O)OC[n+]1ccc2c(C)c3[nH]c4ccc(OC)cc4c3c(C)c2c1",
    "TEST SYSTEM": "SK-MEL-28",
    "GI50": "1.29 µM (inactive)"
  },
  {
    "COMPOUND": "O=C1CCC(C(=O)O)C2=C1CCCC2 (centres undefined)",
    "TEST SYSTEM": "SK-MEL-28",
    "GI50": "> 100 µM (inactive)"
  }
]

For each of the compounds below, state GI50.
1. N#CC(N)(C(=O)CCC(=O)Nc1cccc(Cl)c1)c1ccc(Cl)cc1 (centres undefined)
2. CC1OC2OC3C(OCC(O)C3O)OC(=O)[C@]34CCC(C)(C)CC3C3=CCC5[C@@]6(C)C[C@H](O)[C@H](OC7OC(CO)C(O)C(O)C7OC7OCC(OC(=O)CC(C)(O)CC(=O)OC1C(OC1OC(CO)C(O)C(O)C1O)C2O)C(O)C7O)[C@@](C)(CO)C6CC[C@@]5(C)[C@]3(C)CC4 (some centres undefined)
3. O=C(C=P(c1ccccc1)(c1ccccc1)c1ccccc1)c1ccc(-c2ccc(F)cc2F)cc1
4. Cc1cnc2sn(-c3ccc(Oc4ccccc4)cc3)c(=O)c2c1

1: > 100 µM (inactive); 2: 1.97 µM (inactive); 3: 2.95 µM (inactive); 4: 10.3 µM (inactive)
